Target: T1, human recombinant Nectin-4 protein (extracellular domain) (human, UniProt Q96NY8 32-349)
T1 construct: also called recombinant Nectin-4 (extracellular domain); human Nectin-4 recombinant protein
T1 sequence: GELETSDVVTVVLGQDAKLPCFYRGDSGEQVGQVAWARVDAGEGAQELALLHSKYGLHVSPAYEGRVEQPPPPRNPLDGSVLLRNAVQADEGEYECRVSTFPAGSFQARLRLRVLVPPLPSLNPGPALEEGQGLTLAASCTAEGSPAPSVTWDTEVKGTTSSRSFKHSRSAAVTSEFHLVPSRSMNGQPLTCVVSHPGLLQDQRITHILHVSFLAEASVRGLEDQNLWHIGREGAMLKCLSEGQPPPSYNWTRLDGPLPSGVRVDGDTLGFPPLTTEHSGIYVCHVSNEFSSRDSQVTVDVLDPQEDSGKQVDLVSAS
Experiment: ELISA, recombinant human Nectin-4 coated on plate
Procedure: The binding specificity of the disclosed anti-Nectin-4 antibodies was assessed by ELISA. Briefly, human recombinant Nectin-4 protein was directly coated to ELISA plates. Purified antibodies were then added to the plates followed by detection by goat-anti-mouse IgG-HRP. After addition of ABTS substrate, ELISA plates were read using an ELISA plate reader (Bioteck). […]
observed property: EC50 (nM)
Just the number in nM, nothing appended.

The following binders have reported results that may help.
binder	value reported
N4_mAb 2 (antibody, human IgG1, V domains shown, Tested as chimera (human IgG1/kappa constants); not shown: human IgG1 constant region (Uniprot P01857); human Kappa light chain constant region (UniProt P01834)) VH: QVQLKQSGPNLVQPSQSLSITCTVSGFSLTTYGAHWVRQSPGKGLEWLGVIWRGGSTDYNAAFMSRLSITKDNSKSQVFFKMNSLQADDTAIYYCAKIGYDGYAMDNWGQGTSVTVSS VL: DFQVTQSPASLSASVGETVTITCRTSENIHNYLAWYQQKQGKSPQLLVYNAKTLADGVPSRFSGSGSGTQYSLKINSLQPEDFGTYYCQHFWSSPWTFGGGTKLEIK	0.12
N4_mAb 5 (antibody, human IgG1, V domains shown, Tested as chimera (human IgG1/kappa constants); not shown: human IgG1 constant region (Uniprot P01857); human Kappa light chain constant region (UniProt P01834)) VH: EVQLQQSGPDLVKPGASVKISCKASGYSFTGHYMHWVKQSHGKSLEWIGRVNPNNGGSSYNQKFKDKAILTVDKSSTTAYMELRSLTSEDSAVYYCARDPLGGSYGFAYWGQGTLVTVSA VL: DIVLTQSPASLAVSLGQRATISCRASQSVTTSSYSYMHWYQQKPGQPPKLLIKYASNLESGVPARFSGSGSGTDFTLNIHPVEEEDTATYYCQHSWEIPYTFGGGTKLEMK	0.13

Supply measured EC50 of N4_mAb 8 (antibody, human IgG1, V domains shown, Tested as chimera (murine variable regions, human IgG1/kappa constants); not shown: human IgG1 constant region (Uniprot P01857); human Kappa light chain constant region (UniProt P01834)) VH: QVQLQQSGPVLVKPGASVRISCKASGYTFTSYYIHWVKQRPGQGLEWIGWIYPGNVNTKYNENFRDKATLTADKSSSTSYMQLSSLTSEDSAVYFCARGIYYFDYWGQGTTLTVSS VL: IIVMTQTPKFLLVSAGDRVTITCKASQSVNNDVAWYQEKPGQSPKLLIYYASNRDTGVPDRFTGSGYGTDFTFTISTVQAEDLAVYFCHQDYSSPFTFGSGTKLEIK in your reply.
0.14

Supply recorded EC50 for N4_mAb 6 (antibody, human IgG1, V domains shown, Tested as chimera (murine variable regions, human IgG1/kappa constants); not shown: human IgG1 constant region (Uniprot P01857); human Kappa light chain constant region (UniProt P01834)) VH: QVQLQQSGPELVKPGASVRISCKASGYTFTTYYIHWVKQRPGQGLEWIGWIYPGNVNTKYTENFKDKATLTADKSSSTAYMQLSSLTSEDSAVYFCARGLYYFDFWGQGTTLTVSS VL: SIVMTQTPKFLLVSAGDRVTITCKASQSVNNDVAWYQQKPGQSPKLLIYYASNRDTGVPDRFTGSGFGTDFTFTISSVQAEDLAVYFCQQDYSSPYTFGGGTKLEIK here.
0.03

Please look at this binder and report its EC50: N4_mAb 1 (antibody, human IgG1, V domains shown, Tested as chimera (murine variable regions, human IgG1/kappa constants); not shown: human IgG1 constant region (Uniprot P01857); human Kappa light chain constant region (UniProt P01834)) VH: QVQLKQSGPGLVQPSQSLSITCTVSGFSLTNYGVNWVRQPPGKGLEWLGVIWSGGSTDYNAAFISRLSISKDISKSQVFFKMNSLQADDTAKYYCAREGYDGYAMDYWGQGTSVTVSS VL: DIQMTQSPASLSVSVGETVTITCRASENIFSSLAWYQQKQGKSPQLLVYGATNLADGVPSRFSGSGSGTQYSLKINSLQSEDFGTYWCQHFWGNPWTFGGGTKLEIK
0.14

Query EC50 for N4_mAb 3 (antibody, human IgG1, V domains shown, Tested as chimera (human IgG1/kappa constants); not shown: human IgG1 constant region (Uniprot P01857); human Kappa light chain constant region (UniProt P01834)) VH: EVQLQQSGAELVKPGASVKLSCTVSGFNIKDTYMHWVKQRPEQGLEWIGRIDPANGNTKYDPKFQGKATIIADKASNTAYLQLSSLTSEDAAVYYCAHYYGSSYFAMDCWGQGTSVTVSS VL: DIVMTQSHKFMSTSVGDRVSITCKASQDVSTAVAWYQQKPGQSPKLLIYWASTRHTGVPDRFTGSGSGTDYTLTISSVQTEDLALYYCQQHYSTPLTFGAGTKLELK
1.51

Indicate its recorded EC50; the binder in question is N4_mAb 7 (antibody, human IgG1, V domains shown, Tested as chimera (murine variable regions, human IgG1/kappa constants); not shown: human IgG1 constant region (Uniprot P01857); human Kappa light chain constant region (UniProt P01834)) VH: QVQLQQSGPELVKPGASVKMSCKASGYTFTTYYIHWVKQRPGQGLEWIGWIYPGNAGIKSNEKFKGKTTLTADKSSSTAYMLLSSLTSEDSAIYFCARGVYFFDYWGQGTTLTVSS VL: SIVMTQTPKFLLVSAGDRVTITCKASQSVNNDVSWFQQKPGQSPKLLIYYASNRYTGVPDRFSGSGYGTDFTFTITTVQAEDLAVYFCQQDYSSPYTFGGGTKLEIK
0.04
